- procedure details: Half life determined by administering intravenously in dog plasma
- Assay type: ADME, organism-based, Canis lupus familiaris
- details: iv
measured endpoint: half-life (min)

| structure notation | half-life, min |
| --- | --- |
| O=C(Nc1cnccn1)c1cccc(CN2C(=O)N(Cc3cccc(C(=O)Nc4cnccn4)c3)[C@H](Cc3ccccc3)[C@H](O)[C@@H](O)[C@H]2Cc2ccccc2)c1 | 48 |
| O=C(Nc1ccccn1)c1cccc(CN2C(=O)N(Cc3cccc(C(=O)Nc4ccccn4)c3)[C@H](Cc3ccccc3)[C@H](O)[C@@H](O)[C@H]2Cc2ccccc2)c1 | 66 |

###

- procedure details: Half life determined by administering intravenously in dog
- Type: ADME, organism-based, Canis lupus familiaris
- details: in vivo, iv
measured endpoint: half-life (h)
Give the value, in units of h, as a plain number.

# half-life of Cc1ccc(NC(=O)c2cccc(CN3C(=O)N(Cc4cccc(C(=O)Nc5ccc(C)cn5)c4)[C@H](Cc4ccccc4)[C@H](O)[C@@H](O)[C@H]3Cc3ccccc3)c2)nc1 = 1

###

- Species: Canis lupus familiaris
- procedure details: Clearance of compound in dog plasma
measured endpoint: clearance (mL/min/kg)
// units = mL/min/kg; emit number, no label

For record Cc1ccc(NC(=O)c2cccc(CN3C(=O)N(Cc4cccc(C(=O)Nc5ccc(C)cn5)c4)[C@H](Cc4ccccc4)[C@H](O)[C@@H](O)[C@H]3Cc3ccccc3)c2)nc1 the listed clearance is 66.7

###

- procedure details: Apparent volume of distribution of compound in dog plasma
- Format: ADME, organism-based, Canis lupus familiaris
- details: read-out: Vss
measured endpoint: Vd (L/kg)

| structure notation | Vd (L/kg) |
| --- | --- |
| O=C(Nc1cnccn1)c1cccc(CN2C(=O)N(Cc3cccc(C(=O)Nc4cnccn4)c3)[C@H](Cc3ccccc3)[C@H](O)[C@@H](O)[C@H]2Cc2ccccc2)c1 | 3 |

(A) O=C(Nc1ccccn1)c1cccc(CN2C(=O)N(Cc3cccc(C(=O)Nc4ccccn4)c3)[C@H](Cc3ccccc3)[C@H](O)[C@@H](O)[C@H]2Cc2ccccc2)c1
(B) Cc1ccc(NC(=O)c2cccc(CN3C(=O)N(Cc4cccc(C(=O)Nc5ccc(C)cn5)c4)[C@H](Cc4ccccc4)[C@H](O)[C@@H](O)[C@H]3Cc3ccccc3)c2)nc1
Hi! Which is lower in terms of Vd, the first one A or the second one B ? Label of pick, please.
B

###

- procedure details: Half life (5 mg/kg, intravenously) determined by administering intravenously in dogs
- details: dog, in vivo, iv
measured endpoint: half-life (h)
Reply with just the number (in h).

// sample Nc1cccc(CN2C(=O)N(Cc3cccc(N)c3)[C@H](Cc3ccccc3)[C@H](O)[C@@H](O)[C@H]2Cc2ccccc2)c1 , its half-life was 3.6

###

- procedure details: Clearance of compound in dog plasma
- Format: ADME, organism-based, Canis lupus familiaris
measured endpoint: clearance (mL/min/kg)

(P) O=C(Nc1cnccn1)c1cccc(CN2C(=O)N(Cc3cccc(C(=O)Nc4cnccn4)c3)[C@H](Cc3ccccc3)[C@H](O)[C@@H](O)[C@H]2Cc2ccccc2)c1
(Q) O=C(Nc1ccccn1)c1cccc(CN2C(=O)N(Cc3cccc(C(=O)Nc4ccccn4)c3)[C@H](Cc3ccccc3)[C@H](O)[C@@H](O)[C@H]2Cc2ccccc2)c1
// select label with min value of measured clearance from [ P , Q ] Please indicate the selected item by its label.
P

###

pKi values recorded for Human immunodeficiency virus type 1 protease (Human immunodeficiency virus 1)
The read-out pKi is expressed as -log10 of concentration in moles per litre.

Examples with answers:
| structure notation | pKi |
| --- | --- |
| COc1cccc(CN2C(=O)N(Cc3cccc(C(=O)Nc4ccccn4)c3)[C@H](Cc3ccccc3)[C@H](O)[C@@H](O)[C@H]2Cc2ccccc2)c1 | 10.33 |
| Nc1cccc(CN2C(=O)N(Cc3cccc(C(=O)Nc4nc5ccccc5[nH]4)c3)[C@H](Cc3ccccc3)[C@H](O)[C@@H](O)[C@H]2Cc2ccccc2)c1 | 10.64 |
| Nc1cccc(CN2C(=O)N(Cc3cccc(C(=O)Nc4ncc[nH]4)c3)[C@H](Cc3ccccc3)[C@H](O)[C@@H](O)[C@H]2Cc2ccccc2)c1 | 10.92 |

Read the next record carefully.
Measured pKi of Cc1ccc(NC(=O)c2cccc(CN3C(=O)N(Cc4cccc(N)c4)[C@H](Cc4ccccc4)[C@H](O)[C@@H](O)[C@H]3Cc3ccccc3)c2)nc1 : 10.12

###

- assay target: Human immunodeficiency virus type 1 protease (Human immunodeficiency virus 1)
measured endpoint: IC90 (nM)

| structure notation | IC90, nM |
| --- | --- |
| COc1cccc(CN2C(=O)N(Cc3cccc(C(=O)Nc4cccc(C)n4)c3)[C@H](Cc3ccccc3)[C@H](O)[C@@H](O)[C@H]2Cc2ccccc2)c1 | 42.7 |
| Nc1cccc(CN2C(=O)N(Cc3cccc(C(=O)Nc4ncc[nH]4)c3)[C@H](Cc3ccccc3)[C@H](O)[C@@H](O)[C@H]2Cc2ccccc2)c1 | 26.2 |

(I) O=C1N(Cc2ccc(CO)cc2)[C@H](Cc2ccccc2)[C@H](O)[C@@H](O)[C@@H](Cc2ccccc2)N1Cc1ccc(CO)cc1
(II) CC(C)c1nc(CN(C)C(=O)N[C@H](C(=O)N[C@@H](Cc2ccccc2)C[C@H](O)[C@H](Cc2ccccc2)NC(=O)OCc2cncs2)C(C)C)cs1
(III) CC(C)(C)NC(=O)[C@@H]1C[C@@H]2CCCC[C@@H]2CN1C[C@@H](O)[C@H](Cc1ccccc1)NC(=O)[C@H](CC(N)=O)NC(=O)c1ccc2ccccc2n1
Hey, quick one: sort these by IC90, largest value first please. Please respond with the labels ordered as the question requires.
I, II, III
(I: 115 nM, II: 76 nM, III: 10.4 nM)
